B1: EHEE_rd3_0053 (parent)
chain: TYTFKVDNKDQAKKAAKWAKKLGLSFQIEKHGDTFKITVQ

# Variants of: B1
# test: folding stability dG (cDNA display proteolysis); higher = more stable
# experimental.setup: PBS, room temperature
observation.type: folding stability dG (kcal/mol)
Answer in kcal/mol, number only, no unit symbol.

change=Q40L observation_type="folding stability dG" u=kcal/mol val=2.41

[ask] Request the reported folding stability dG associated with T1V
[reply] 2.43

[ask] Quick one: T34L
[reply] 2.36

[ask] Quick one: K17S
[reply] 2.33

[ask] Quick one: D7E
[reply] 2.37
